Target: AgBzz1-D2
Test: SPOT peptide array binding signal intensity (averaged, normalized) (arbitrary units (background-subtracted, floor 0; scale differs between SH3 domains)); higher = stronger binding of the SH3 domain to the peptide
// SPOT peptide array binding signal intensity lookup, one value per entry
Write no unit; give the number alone.

Find the recorded SPOT peptide array binding signal intensity belonging to ISRRRLPVIMHRLKM and report it.
14

Value lookup for SPOT peptide array binding signal intensity; key = FSRRQSMDIPSKNRN
78.5

Quick one: SPOT peptide array binding signal intensity for IHTRRPSSTSQYLIR ?
58.5
